Measurement Target: human mGluR5A (Homo sapiens, UniProt P41594)
Sequence (P41594 21-1180 isoform P41594-2): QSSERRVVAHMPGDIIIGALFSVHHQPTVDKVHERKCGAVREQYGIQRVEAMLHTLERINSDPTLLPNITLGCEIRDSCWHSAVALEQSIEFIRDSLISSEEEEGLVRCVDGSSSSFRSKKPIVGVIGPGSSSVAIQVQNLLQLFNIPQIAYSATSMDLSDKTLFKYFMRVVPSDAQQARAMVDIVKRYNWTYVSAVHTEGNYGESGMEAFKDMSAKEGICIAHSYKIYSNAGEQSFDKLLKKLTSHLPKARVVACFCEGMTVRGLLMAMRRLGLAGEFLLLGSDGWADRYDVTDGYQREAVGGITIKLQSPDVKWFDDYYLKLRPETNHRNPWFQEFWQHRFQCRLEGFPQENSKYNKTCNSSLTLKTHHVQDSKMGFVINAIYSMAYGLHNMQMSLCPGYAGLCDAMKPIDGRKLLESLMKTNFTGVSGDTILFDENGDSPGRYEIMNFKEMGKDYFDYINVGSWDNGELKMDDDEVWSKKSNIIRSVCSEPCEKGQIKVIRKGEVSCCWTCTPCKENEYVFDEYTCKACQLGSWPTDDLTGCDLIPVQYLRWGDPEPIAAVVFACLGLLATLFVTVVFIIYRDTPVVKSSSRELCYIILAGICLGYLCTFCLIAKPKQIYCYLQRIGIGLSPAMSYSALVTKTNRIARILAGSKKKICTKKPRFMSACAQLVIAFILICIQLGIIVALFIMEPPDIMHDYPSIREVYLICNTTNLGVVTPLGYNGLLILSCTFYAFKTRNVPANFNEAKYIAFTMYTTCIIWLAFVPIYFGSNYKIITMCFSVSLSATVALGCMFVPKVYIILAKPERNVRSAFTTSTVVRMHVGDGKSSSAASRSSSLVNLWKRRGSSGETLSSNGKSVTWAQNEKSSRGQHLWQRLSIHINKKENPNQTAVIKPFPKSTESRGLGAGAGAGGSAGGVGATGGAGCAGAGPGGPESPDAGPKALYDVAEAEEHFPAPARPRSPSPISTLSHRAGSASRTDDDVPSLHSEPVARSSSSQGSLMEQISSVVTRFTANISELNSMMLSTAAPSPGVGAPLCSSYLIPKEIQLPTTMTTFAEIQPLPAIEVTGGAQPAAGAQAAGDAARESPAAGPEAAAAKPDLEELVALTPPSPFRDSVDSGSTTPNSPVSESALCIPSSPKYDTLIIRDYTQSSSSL
Assay Info: mGluR5 FLIPR Assay
Conditions: positive modulator activity; HEK293 (ZF) cells with human mGluR5A and rat GLAST; Ca++ response to ~EC10 glutamate
pEC50: −log10 of the molar value.
Record form. Attribute: pEC50. Fill in for each entry.

Item O=C1N[C@@H](c2cncc(C#Cc3ccccc3)c2)[C@H](c2ccnnc2)O1 (single isomer, unassigned) has what recorded pEC50? < 6.00

Item COc1cccc([C@@H]2OC(=O)N[C@H]2c2ccnc(C#Cc3ccccc3)c2)c1 (single isomer, unassigned) has what recorded pEC50? > 7.00

Item O=C1N[C@@H](c2cccc(C#Cc3ccnc(F)c3)n2)[C@H](c2ccc(F)cc2)O1 (single isomer, unassigned) has what recorded pEC50? < 6.00

Item COc1cccc([C@H]2OC(=O)N[C@@H]2c2cccc(C#Cc3ccnc(Cl)c3)c2)c1 has what recorded pEC50? < 4.52

Item O=C1N[C@H](c2ccnc(C#Cc3cccc(F)c3)c2)[C@@H](c2cccnc2)O1 has what recorded pEC50? < 6.00

Item N#Cc1cccc(C#Cc2cncc([C@H]3NC(=O)O[C@@H]3c3cc(F)ccc3F)c2)c1 has what recorded pEC50? < 6.00

Item O=C1N[C@H](c2cccc(C#Cc3ccccc3)c2)[C@@H](c2ccccc2F)O1 has what recorded pEC50? > 7.00

Item O=C1N[C@H](c2cncc(C#Cc3ncccc3F)c2)[C@@H](c2ccc(F)cc2)O1 has what recorded pEC50? > 7.00

Item O=C1N[C@H](c2cc(C#Cc3ccnc(C4CC4)c3)cnc2F)[C@@H](c2ccc(Cl)cc2)O1 has what recorded pEC50? < 6.00

Item O=C1N[C@H](c2cc(C#Cc3ccnc(F)c3)cnc2F)[C@@H](c2cccc(F)c2)O1 has what recorded pEC50? > 7.00

Item N#Cc1cncc(C#Cc2cncc([C@H]3NC(=O)O[C@@H]3c3ccc(F)cc3)c2)c1 has what recorded pEC50? > 7.00

Item O=C1N[C@H](c2cncc(C#Cc3ccc(Cl)cc3)c2)[C@@H](c2cc(F)ccc2F)O1 has what recorded pEC50? 6.00 to 7.00

Item COc1cccc([C@H]2OC(=O)N[C@@H]2c2cccc(C#Cc3ccncc3)c2)c1 has what recorded pEC50? > 7.00
